Target: FLNA pentapeptide of SEQ ID NO: 1 (Bn-VAKGL) (Homo sapiens, UniProt P21333)
Assay: FITC-NLX-based FLNA screening assay (inhibition of FITC-naloxone binding to Bn-VAKGL on streptavidin plates)
Details: read-out: Percent Binding Inhibition, FLNA-binding compound 1 μM; 10 nM FITC-NLX
Mark label 0 for inhibition at 1 µM values under 50%, and label 1 for everything at or above.

-- ask Determine whether measured inhibition at 1 µM meets or exceeds 50% for COc1ccc(S(=O)(=O)N2CCC3(CC2)OCCN3S(=O)(=O)c2ccc(C(C)=O)cc2)cc1 [Compound C0048]
-- reply label 0

-- ask In plain terms: is recorded inhibition at 1 µM at least 50% for CC(=O)c1ccc(S(=O)(=O)N2CCC3(CC2)OC(CN(C)C)CN3S(=O)(=O)c2ccc(C(C)=O)cc2)cc1 (centres unmarked) [Compound C0065] ?
-- reply label 0

-- ask Exam item: decide whether the reported inhibition at 1 µM for CC(=O)c1ccc(S(=O)(=O)N2CCC3(CC2)OCCN3S(=O)(=O)c2ccc(C(C)=O)cc2)cc1 [Compound C0011] is at least 50%.
-- reply label 0

-- ask Dear colleague, could you confirm whether COc1cccc(S(=O)(=O)N2CCC3(CC2)OCCN3S(=O)(=O)c2cccc(OC)c2)c1 [Compound C0002] has inhibition at 1 µM at or above 50%?
-- reply label 0

-- ask Identify whether the reported inhibition at 1 µM of the following compound is 50% or greater: C=CCN1CCC2(CC1)OCCN2S(=O)(=O)c1ccc(OC)cc1 [Compound C0091M]
-- reply label 0

-- ask Assess whether reported inhibition at 1 µM for COc1ccc(S(=O)(=O)N2CCOC23CCN(C)CC3)cc1 [Compound C0088M] sits at 50% or higher.
-- reply label 1
